The reported numbers originate from patent US10919943B2.

tested on: HAB1; assay: Yeast two hybrid of pBD-PYR1 site saturation mutants with pACT-HAB1 on 10 μM ABA, β-galactosidase staining; type: cell-based, Arabidopsis; set-up: key: x: Mutations in PYR1 that disrupt ABA-induced binding to PYR1 to HAB1; conditions: S. cerevisiae Y190, 10 μM ABA; dead = lack of visible staining in comparison to wild type control
Attribute measured: Mutations in PYR1 that disrupt ABA-induced binding to PYR1 to HAB1

• I62R: PYR1 mutant (protein, UniProt O49686 1-191, looked up, variant I62R) Abscisic acid receptor PYR1: MPSELTPEERSELKNSIAEFHTYQLDPGSCSSLHAQRIHAPPELVWSIVRRFDKPQTYKHFRKSCSVEQNFEMRVGCTRDVIVISGLPANTSTERLDILDDERRVTGFSIIGGEHRLTNYKSVTTVHRFEKENRIWTVVLESYVVDMPEGNSEDDTRMFADTVVKLNLQKLATVAEAMARNSGDGSGSQVT = x
• L117W: PYR1 mutant (protein, UniProt O49686 1-191, looked up, variant L117W) Abscisic acid receptor PYR1: MPSELTPEERSELKNSIAEFHTYQLDPGSCSSLHAQRIHAPPELVWSIVRRFDKPQTYKHFIKSCSVEQNFEMRVGCTRDVIVISGLPANTSTERLDILDDERRVTGFSIIGGEHRWTNYKSVTTVHRFEKENRIWTVVLESYVVDMPEGNSEDDTRMFADTVVKLNLQKLATVAEAMARNSGDGSGSQVT = x
• T156L: PYR1 mutant (protein, UniProt O49686 1-191, looked up, variant T156L) Abscisic acid receptor PYR1: MPSELTPEERSELKNSIAEFHTYQLDPGSCSSLHAQRIHAPPELVWSIVRRFDKPQTYKHFIKSCSVEQNFEMRVGCTRDVIVISGLPANTSTERLDILDDERRVTGFSIIGGEHRLTNYKSVTTVHRFEKENRIWTVVLESYVVDMPEGNSEDDLRMFADTVVKLNLQKLATVAEAMARNSGDGSGSQVT = x
